tested on: primary CLL patient cells (S031); assay: viability relative to DMSO control (fraction); higher = less drug effect (more viable cells); conditions: 1 µM; 48 h
Please use yes for viability under 0.02 and no for everything else, ties included.

compound: Cc1nc(Nc2ncc(C(=O)Nc3c(C)cccc3Cl)s2)cc(N2CCN(CCO)CC2)n1
classification: no

// query I'd appreciate it if you could check whether `O=C1c2c(O)ccc(O)c2C(=O)c2c(NCCNCCO)ccc(NCCNCCO)c21` has viability smaller than 0.02.
// result no

// query I'd appreciate it if you could check whether `COc1cccc2c1C(=O)c1c(O)c3c(c(O)c1C2=O)C[C@@](O)(C(C)=O)C[C@@H]3O[C@H]1C[C@H](N)[C@H](O)[C@H](C)O1` has viability smaller than 0.02.
// result yes

// query I'd appreciate it if you could check whether `CCc1cnn2c(NCc3ccc[n+]([O-])c3)cc(N3CCCC[C@H]3CCO)nc12` has viability smaller than 0.02.
// result yes

// query I'd appreciate it if you could check whether `CC(C)(C)C[C@@H]1N[C@@H](C(=O)N[C@H]2CC[C@H](O)CC2)[C@H](c2cccc(Cl)c2F)[C@]12C(=O)Nc1cc(Cl)ccc12` has viability smaller than 0.02.
// result no

====

system: primary FL patient cells (S022); assay: viability relative to DMSO control (fraction); higher = less drug effect (more viable cells); conditions: 0.024 µM; 48 h
quantity: viability

compound: O=C(Nc1cccc(C(F)(F)F)c1)Nc1cc(S(=O)(=O)NC2CC2)ccc1-c1ccsc1
viability: 0.826
//
compound: CNC(=O)c1cc(Oc2ccc(NC(=O)Nc3ccc(Cl)c(C(F)(F)F)c3)cc2)ccn1
viability: 1.05
//
compound: O=C(O)CSc1cc(NS(=O)(=O)c2ccc(Br)cc2)c2ccccc2c1O
viability: 0.967

Shifting focus to the compound that follows.
response.value for `CCN1CCN(Cc2ccc(Nc3ncc(F)c(-c4cc(F)c5nc(C)n(C(C)C)c5c4)n3)nc2)CC1` (field: viability) = 1.12

====

system: primary AML patient cells (S072); test: viability relative to DMSO control (fraction); higher = less drug effect (more viable cells); conditions: 0.024 µM; 48 h
Please use y for viability under 1 and n for everything else, ties included.

Example entries and their recorded answers appear below.
compound: N#CC[C@H](C1CCCC1)n1cc(-c2ncnc3[nH]ccc23)cn1 [Ruxolitinib]
classification: n
--
compound: Cc1cc(Nc2ncc(Cl)c(Nc3ccccc3S(=O)(=O)C(C)C)n2)c(OC(C)C)cc1C1CCNCC1 [Ceritinib]
classification: y
--
compound: CCN1CCN(Cc2ccc(Nc3ncc(F)c(-c4cc(F)c5nc(C)n(C(C)C)c5c4)n3)nc2)CC1
classification: y

Now take the following compound into account.
// query I'd appreciate it if you could check whether O=C(O)CSc1cc(NS(=O)(=O)c2ccc(Br)cc2)c2ccccc2c1O [UMI-77] has viability smaller than 1.
// result y

====

test system: primary AML patient cells (S071); assay: viability relative to DMSO control (fraction); higher = less drug effect (more viable cells); conditions: 0.2 µM; 48 h
quantity: viability
Lab note: jot the number down without any unit.

Solved cases (4 shown):
compound: O=C1c2c(O)ccc(O)c2C(=O)c2c(NCCNCCO)ccc(NCCNCCO)c21
viability: 0.124
//
compound: Nc1cccc2c1CN(C1CCC(=O)NC1=O)C2=O (stereo not given) [Lenalidomide]
viability: 0.386
//
compound: C/C=C1\NC(=O)[C@H]2CSSCC/C=C/[C@H](CC(=O)N[C@H](C(C)C)C(=O)N2)OC(=O)[C@H](C(C)C)NC1=O
viability: 0.182
//
compound: Nc1ccc2ncnc(NCCc3ccc(Oc4ccccc4)cc3)c2c1
viability: 0.351

Shifting focus to the compound that follows.
response.value for `COc1cccc2c1C(=O)c1c(O)c3c(c(O)c1C2=O)C[C@@](O)(C(C)=O)C[C@@H]3O[C@H]1C[C@H](N)[C@H](O)[C@H](C)O1` (field: viability) = 0.118
